src = the supplement of paper PMC12042874

assay-method-text: amyloid nucleation score (Sup35N fusion, yeast selection) (log enrichment); library NNK1; higher = more nucleation; inactive = no reads after selection;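 further: zero at mode of non-aggregating sequences after 7 days selection at 30°C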
readout-kind: amyloid nucleation score
In your answer, state the number alone without any accompanying words.

Previously resolved entries follow.
substance	amyloid nucleation score
SLSTVNRKAV	-0.637
LNSLVKALQSVNNYVDLTYS	0.358

# input for lookup
Exercise: Given IVKWLMGMHWLMLAHGV , state its recorded amyloid nucleation score.
Key: 0.181

###

assay-method-text: amyloid nucleation score (Sup35N fusion, yeast selection) (log enrichment); library NNK3; higher = more nucleation; inactive = no reads after selection
readout-kind: amyloid nucleation score

substance	readout-kind	measured-result
FSGSTSLCLMMRYTSTVR	amyloid nucleation score	0.359
SERKMVSKRTLKGYFRRQVI	amyloid nucleation score	inactive
GLCRWVTPTAWSAIVVQFCV	amyloid nucleation score	inactive
IMFSVRRLKSILSRVAWYNT	amyloid nucleation score	inactive
ISNLRSVVLWNSRLQRNRGW	amyloid nucleation score	inactive

Exercise: So what does the record say about amyloid nucleation score for ANGNNSLTATLTNAVD ?
Key: inactive

Exercise: Quick one: CVTRDDLCYW
Key: inactive

Exercise: Next up: AFKGRLLG
Key: inactive

Exercise: How about this substance: MMLGVLYATLWPLLKLDCGE
Key: inactive

Exercise: Now the same for AWMVFCPCKMCMCRCYL
Key: 1.41

Exercise: // next record NMTHLFMVCAKVSMPSGDGG
Key: inactive

Exercise: // next record LRMFNGSEAIYFMLVQSLFR
Key: inactive

Exercise: # repeat for GTTRATPSGPLCMNGKENVV
Key: inactive

Exercise: Input ESIYVNPGDSL
Key: inactive

Exercise: Please do the same for LCFFVERRLKGYDVGLSNLL as well.
Key: inactive

Exercise: Follow-up entry: LLFVVQWWFNRFFE
Key: inactive

Exercise: Entry to check: KLNGFPWRPAWHEVMAGWVW
Key: inactive

Exercise: Could you do the same for FGLYYRLPNNCNKTGNQFTV , please?
Key: inactive
